Please provide measured pEC50 for the entries that follow.
# Test Target: T1, human Claudin 18.2 (human, UniProt P56856-2 1-261)
# T1 construct: whole, on cells
# T1 sequence (looked up): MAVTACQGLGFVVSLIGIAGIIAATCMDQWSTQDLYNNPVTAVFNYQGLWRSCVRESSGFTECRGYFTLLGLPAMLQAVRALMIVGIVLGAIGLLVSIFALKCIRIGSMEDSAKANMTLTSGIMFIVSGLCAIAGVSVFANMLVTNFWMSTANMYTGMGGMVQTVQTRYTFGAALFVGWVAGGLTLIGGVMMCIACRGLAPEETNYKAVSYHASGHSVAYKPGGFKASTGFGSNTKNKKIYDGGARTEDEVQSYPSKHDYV
# Assay Summary: flow cytometry (iQue) on HEK293-Claudin 18.2 cells, chimeric IgG1
One number for each entry, as −log10 of the molar value.

Example entries and their recorded answers appear below.
INSERT INTO results (binder, endpoint_result) VALUES
  ('25A5 (antibody, V domains shown, also called Clone 25A5) VH: EVQLKESGPGLVAPSQSLSITCTVSGFSLTNYGVSWIRQPPGKGLEWLGAIWAGGNTNYNSALMSRLSIRKDNSKSQVFLKMNSLQTDDTAMYYCARVGYGNSFANWGQGTLVTVSA VL: DIVMTQSPSSLTVTAGEKVTMSCKSSQSLLNSGNQRNYLTWYQQKPGQPPKLLIYWASTRESGIPDRFIGSGSGTDFTLTISSVQAEDVSVYYCQNNYIFPLTFGAGTKLEIK', 9.72),
  ('19B2 (antibody, V domains shown, also called Clone 19B2) VH: QVQLQQSGAELVKPGTSVKLSCKASGYSFTTYGLNWVRQRPKQGLEWIGWIFPGDGNVNYNEKFQGQATLTTDKSSSTAYMQLSRLTSEDSAVYFCARFYYGNSLNYWGQGTLVTVSA VL: DIVMTQSPSSLTVTAGEKVTMSCKSSQSLLNSGNLRNYLTWYQQKPGRPPKLLIYWASTRESGVPDRFTGSGSGTDFTLTISSVQAEDLAVYYCQNNYFYPLTFGAGTKLEIK', 9.70);

Reported pEC50 for 18G5 (antibody, V domains shown, also called Clone 18G5) VH: EVQLQQSGREVVRPGTSVKVSCKPSGYAFTNYLIDWVKQRPGQGLEWIGGINPGSGDTVYNEKFKAKATLTADKSSMTTNMQLSSLTSDDSAVYFCARRVRGNSFDSWGQGTLVTVSA VL: DIVMTQSPSSLTVRAGEKVTMTCKSSQSLFNSGNQRNYLTWYQQKPGQPPKLLLYWATARESGVPDRFTGSGSGTDFTLSISSVQAEDLAVYYCQNVYFYPLTFGAGTKLEIK : what is it?
8.42
